- protocolNotes: in vivo
- statedConditions: male, Beagle, dog, po, 30 mg/kg
measurementName: Cmax (ng/mL)
# number only, unit ng/mL dropped from output

Please fill in: Cmax reported for N#Cc1cnn2c(-c3cccnc3)ccnc12 [Carbonitrile] = 6390

====

- protocolNotes: in vivo
- statedConditions: male, Beagle, dog, po, 30 mg/kg
measurementName: Tmax (h)
Lab book: enter the figure in h, no units written.

Summary for this compound, `N#Cc1cnn2c(-c3cccnc3)ccnc12` : Tmax is 8.25

====

- protocolNotes: in vivo
- statedConditions: male, Beagle, dog, po, 15 mg/kg
- Procedure: In this evaluation 8 male Beagle breed dogs, 6 months to 2 years of age, and at least 10 kg in weight were used. […] Blood samples were collected at regular time intervals and analyzed for concentration of test compound. The Cmax value (the maximum compound concentration in the plasma) and the Tmax value (the time, after dosing, at which the peak compound concentration was obtained) were determined by observation. […]
measurementName: Tmax
Please answer in the form of a number followed by its unit of measurement.

Entry `N#Cc1cnn2c(-c3cccnc3)ccnc12` ; Tmax = 4.25 h
